Could you please report measured growth inhibition for the items listed next?
# Assay Protocol: NCI Yeast Anticancer Drug Screen. Data for the cln2 rad14 strain (AID 165);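 also: 0% = growth equal to vehicle treated cultures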
# Condition: S. cerevisiae cln2 rad14 strain, at 50.0 µM, stronger effect = higher value
This is part of a sample that, as a whole, favours compounds with a hit. Of some 79,000 tested, about 15% had one in any assay.
Numeric answer only, unit % assumed.

Per the record, `O=S(=O)(C#Cc1ccccc1)c1ccccc1` has growth inhibition of 99.2

# growth inhibition of C=C1C(C2(C)C(OC(C)=O)CC(=O)OC(C)(COC(C)=O)C2CC(=O)OC)C(OC=O)C(OC(=O)C(O)C(C)CC)C2(C)C(c3ccoc3)CC(=O)C12O (centres undefined) = 81.5

Per the record, `COc1ccc2nc3cccc([N+](=O)[O-])c3c(NCCN(C)C)c2c1` has growth inhibition of 83

Value of measured growth inhibition for the entry `CCOc1ccc(C(OC)OC)cc1[N+](=O)[O-]` : 87.5

Reported growth inhibition of `CCCCCCc1c(Cl)nc(Cl)nc1Cl` : -46.6

The molecule identified as CCOC(=O)/C=C1/C(=O)OC2C1OC1OC(C)(C)OC12 (centres undefined) registered its growth inhibition at -15.1

Reported growth inhibition ( `N#CC(C#N)=C(C1CC1)C1CC1` ) = 41.4

Briefly, growth inhibition measured for `[O-][n+]1onc2ncccc21` : 99.2

Briefly, growth inhibition measured for `CN(C)C(=S)/N=c1\ssc(=S)n1-c1ccccc1` : -17.1

Entry `O=[N+]([O-])c1ccc(C2=Nn3cnnc3SC2)o1` ; growth inhibition = 78.5

The molecule listed as `CC(C)C1=CC[C@H]2C(=C1)CC[C@@H]1[C@]2(C)CCC[C@@]1(C)C(=O)O` has a reported growth inhibition of 87

Entry `Cc1ccc(N=Nc2sc(N)nc2C)cc1C` ; growth inhibition = 30.1

The measured growth inhibition associated with N#CC1Sc2ccccc2N1C(=O)Oc1ccccc1 (centres undefined) reads 98.2

Record `CN(CCCN(CCO)CCO)C1CC(C)(C)N(O)C(C)(C)C1` , field growth inhibition: 14.7

GET /value?item= NNC(=S)N/N=C(/C(=O)Nc1ccc(Cl)c(Cl)c1)C(C1OC(=O)c2ccccc21)[N+](=O)[O-] (centres undefined) &field=growth inhibition returns 23.4

Notebook: COc1ccc(C2C3CCCC(C(c4ccc(OC)cc4)N2C)C32NC(=O)NC2=O)cc1 (centres undefined) , growth inhibition read as 97.2

response.value for `O=C(Nc1ccccc1C(=O)O)c1ccccc1` (field: growth inhibition) = -11.6

Reported growth inhibition of `O=C(Nn1c(-c2ccccc2)nc2ccccc2c1=O)c1ccccc1O` : 77.8

Form: molecule = `Cc1cc(Cl)c(O)c(-c2cc(-c3ccccc3O)c(C#N)c(N)n2)c1` ; growth inhibition = 69.4

###

# Assay Protocol: NCI Yeast Anticancer Drug Screen. Data for the mec2-1 strain (AID 157)
# Condition: S. cerevisiae mec2-1 strain, at 5.0 µM (retest, dose inferred, filed as 0.5)
This is part of a sample that, as a whole, favours compounds with a hit. Of some 79,000 tested, about 15% had one in any assay. The source made the active and inactive calls. Cut-off read from the data, not from the text of the source: active = growth inhibition above about 70%; inactive = the rest.
Please answer using one outcome listed in T = active, F = inactive

**Q:** Record lookup: outcome of this test for `COc1ccc(-c2nc(C)[nH]c(=O)c2Cc2c(O)ccc3ccccc23)cc1` ?
**A:** F

**Q:** Tell me the assay call for `Cc1c(-c2ccccc2)ccnc1/C=N/NC(=S)NCCc1ccccc1` please.
**A:** F

**Q:** Entry `O=C1/C(=C/c2ccccc2)CNC/C1=C\c1ccccc1` : call = ?
**A:** F

**Q:** What was the test verdict on `Cn1ncc2c(Nc3cccc(Cl)c3)nc(Nc3cccc(Cl)c3)nc21` ?
**A:** F

**Q:** Please indicate how the test categorized `COc1ccc2ccnc(Cc3ccc(OCc4ccccc4)c(OC)c3)c2c1` .
**A:** F

**Q:** Fill in: this test's call for `Clc1ccc2nc(Cl)c(Cl)nc2c1` is ___
**A:** F

**Q:** Which result was noted for this molecule in the test: Cc1cccc(CC(C)(C)C)c1NC(=O)C(=O)C(C(=O)c1ccc2ccccc2c1)C1OC(=O)c2ccccc21 (configuration not stated)
**A:** F

**Q:** Please state the recorded outcome for this molecule: `Cc1cc(C)n2nc(N)c(C#N)c2c1C#N`
**A:** F

**Q:** Recorded test outcome, item `CCCCN(CCCC)C(=O)c1ccc(OC(=O)OCC)c(OC)c1`
**A:** F

**Q:** What did the test return for `CCOC(=O)/C(=C\n1c(=O)sc2ccccc21)C(=O)c1ccccc1` ?
**A:** F

**Q:** Dear colleague, could you share the recorded outcome for `COC(=O)c1nnn(-c2ccc(Cl)cc2Cl)c1C(=O)c1ccc(Cl)c(Cl)c1` when you have a moment?
**A:** F

**Q:** Just curious, what result did `CCCCCCC(/C=C/c1ccccc1)=N\O` get here?
**A:** F

**Q:** Short answer needed: outcome of this test for `Cc1c(O)ccc(C(=O)CCl)c1O` ?
**A:** F

**Q:** Outcome? `Cc1c(NC(=O)CCl)c(=O)oc2c(C)c3occc(=O)c3cc12`
**A:** F

**Q:** Which outcome was entered for the molecule `CC(C)CCOc1ccc(/C=C\C(=O)O)cc1` in this test?
**A:** F

**Q:** Hi, do you know how `Nc1ccc2nc3ccccc3nc2c1` came out in this test?
**A:** F

**Q:** I'd appreciate the recorded outcome for Cc1ccc(N2C(=O)C(C)SC2=S)cc1Cl (configuration not stated) from this test.
**A:** F

**Q:** For `Nc1ccc(C(=O)/C=C/c2ccccc2O)cc1` , which call appears in the assay record?
**A:** F

**Q:** Could you kindly confirm the outcome this assay logged for `NNc1cc(C(F)(F)F)nc2ccccc12` ?
**A:** F

**Q:** Tell me the recorded outcome of this test for CSc1nc(N)c2cnn(C3OC(CO)C(O)C3O)c2n1 (configuration not stated) .
**A:** F

**Q:** Just curious, what result did `COc1ccc(SC2=C(N(C)C(C)=O)C(=O)c3ccccc3C2=O)cc1` get here?
**A:** T

**Q:** Returns: the outcome recorded for `COc1ccc(/C=C2\Sc3scc(-c4ccc([N+](=O)[O-])cc4)[n+]3C2=O)cc1OC` in this assay.
**A:** F

**Q:** Answer briefly: the call reported for `Clc1ccc(SSN2CCOCC2)cc1` in this assay.
**A:** F

**Q:** Tell me the recorded outcome of this test for COc1cc2c(cc1O)C(O)CCCC2 (configuration not stated) .
**A:** F

**Q:** What did the test return for `C[N+](C)(C)CCCCCCCCCCC(=O)N/N=C/c1ccc([N+](=O)[O-])o1` ?
**A:** F

**Q:** Could you check what this test reported for `c1csc(CNCc2cccs2)c1` ?
**A:** F

**Q:** Returns: the outcome recorded for `CSC(=S)NN=C1CCCC1` in this assay.
**A:** F

**Q:** Can you look up the reported call for COc1ccc(NC2Oc3cc4c(cc3C(c3cccc(OC)c3OC)C2C)OCO4)cc1 (configuration not stated) for me?
**A:** F

**Q:** For this molecule, state the assay outcome: `CCCCNc1ncc(OCC)c(NCCCC)n1`
**A:** F

**Q:** Any idea what this test logged for COC12C(COC(N)=O)C3=C(C(=O)C(C)=C(N)C3=O)N1CC1C2N1C(=O)c1ccc(Cl)c(Cl)c1 (configuration not stated) ?
**A:** F

**Q:** Per the records of this test, what outcome belongs to `CN(C)c1ccccc1[CH2][Ga]([Cl])[CH2]c1ccccc1N(C)C` ?
**A:** F

**Q:** What did this assay record as the result for CC1=CC(C2/C(=N/O)C=C(C)CC2(C)C)C(O)C(C)(C)C1 (configuration not stated) ?
**A:** F

**Q:** How was `COc1ccc(NS(=O)(=O)c2ccc(N=Cc3c4ccccc4nc4cc(Cl)ccc34)cc2)nn1` classified in this test?
**A:** F

**Q:** Could you check what this test reported for `C[C@H]1CC[C@@H]2[C@@H](C)[C@H]3[C@H](C[C@H]4[C@@H]5CC=C6C[C@@H](O)CC[C@]6(C)[C@H]5C[C@H](O)[C@]34C)N2C1` ?
**A:** F

**Q:** Could you kindly confirm the outcome this assay logged for `Cn1cnc([N+](=O)[O-])c1Sc1nc2ccccc2s1` ?
**A:** F

**Q:** # outcome recorded in this test, key = `O=C(O)Cc1cc(I)c(Oc2ccc(O)c(I)c2)c(I)c1`
**A:** F

**Q:** Please share the test call associated with CN(C)CC1(C)CC/C(=C\c2ccc(Cl)cc2)C1=O (configuration not stated) .
**A:** F

Taken from PubChem BioAssay (NCI).
